// reported EC50 for each item listed
# Test system: Human immunodeficiency virus 1
# ASSAY PROCEDURE: Antiviral activity against Human immunodeficiency virus 1 SF33 infected in human TZM-bl cells assessed decrease in p24 level after 7 days by ELISA
# Assay type: functional, organism-based
# EXPERIMENTAL CONDITIONS: Human immunodeficiency virus 1, SF33, TZM-bl, 168 h
Report only the number, with the unit nM understood.

Here are 3 molecules together with their reported answers.
CC(C)c1c(OC2CCCCC2C)cc(Cc2ccc(F)cc2)[nH]c1=O (mixture of isomers) :: 26
COc1ccc(Cc2cc(OC3CCCCC3C)c(C(C)C)c(=O)[nH]2)cc1 (mixture of isomers) :: 5
CC(C)c1c(OC2CCCCC2C)cc(Cc2ccc(Cl)cc2)[nH]c1=O (mixture of isomers) :: 23

Short answer on Human immunodeficiency virus 1 for CC(C)c1c(OC2CCCCC2C)cc(CCc2ccccc2)[nH]c1=O (mixture of isomers) , EC50: 36

* * *

Parameter: selectivity ratio. Scope: all listed entries.
# ASSAY PROCEDURE: Selectivity index, ratio of CC50 for human TZM-bl cells to EC50 for Human immunodeficiency virus 1 SF33 infected in human TZM-bl cells
# Assay type: toxicity, cell-based
# EXPERIMENTAL CONDITIONS: read-out: Ratio CC50/EC50
Please reply with the number alone, leaving off any unit.

Before answering, review these 3 worked examples.
CC(C)c1c(Cc2ccccc2)n(COCc2ccccc2)c(=O)[nH]c1=O :: 2990
CC(C)c1c(O[C@H]2CCCC[C@H]2C)cc(CCc2ccccc2)[nH]c1=O (racemic) :: 1390
CC(C)c1c(OC2CCCCC2C)cc(CCc2ccccc2)[nH]c1=O (mixture of isomers) :: 3180

Now for the compound whose selectivity ratio we want.
Reported selectivity ratio for COc1ccc(Cc2cc(OC3CCCCC3C)c(C(C)C)c(=O)[nH]2)cc1 (mixture of isomers) was 26500

* * *

# ASSAY PROCEDURE: Selectivity index, ratio of CC50 for human MT4 cells to EC50 for Human immunodeficiency virus 1 SF33 infected in human MT4 cells
# Assay type: toxicity, cell-based
# EXPERIMENTAL CONDITIONS: read-out: Ratio CC50/EC50
# note: boundary value 10000 maps to N; selectivity ratio below it maps to Y

COc1ccc(Cc2cc(OC3CCCCC3C)c(C(C)C)c(=O)[nH]2)cc1 (mixture of isomers) :: N
CC1CCCCC1Oc1cc(CCc2ccccc2)[nH]c(=O)c1Br (mixture of isomers) :: N
CC(C)c1c(O[C@H]2CCCC[C@@H]2C)cc(CCc2ccccc2)[nH]c1=O (racemic) :: N
CC1CCCCC1Oc1cc(CCc2ccccc2)[nH]c(=O)c1I (mixture of isomers) :: N
CC(C)c1c(O[C@H]2CCCC[C@H]2C)cc(CCc2ccccc2)[nH]c1=O (racemic) :: Y
CC(C)c1c(OC2CCCCC2C)cc(Cc2ccc(Cl)cc2)[nH]c1=O (mixture of isomers) :: Y
Cc1ccc(Cc2cc(OC3CCCCC3C)c(C(C)C)c(=O)[nH]2)cc1 (mixture of isomers) :: N
CC(C)c1c(OC2CCCCC2C)cc(Cc2ccc(F)cc2)[nH]c1=O (mixture of isomers) :: Y

Shifting focus to the compound that follows.
Query: Please state whether selectivity ratio is below 10000 for CC(C)c1c(OC2CCCCC2C)cc(CCc2ccccc2)[nH]c1=O (mixture of isomers)
Result: N

Source listed as ChEMBL document CHEMBL2331178.
